- Tested on: IL-6 levels in human whole blood stimulated with a TLR2 agonist
- TEST PROTOCOL: IRAK4 Whole Blood Assay (lipoteichoic acid/TLR2-stimulated IL-6)
- Format: cell-based
- STATED CONDITIONS: Homo sapiens, lipoteichoic acid 10 μg/mL, IL-6 readout
MEASUREMENT TYPE: pEC50
Schema: pEC50 number; meaning minus log10 of the concentration expressed in molar units.

Recorded results for 5 compounds are shown here.
STRUCTURE SMILES STRING | TARGET ENTITY | pEC50
CC(C)(O)[C@H](F)CNC(=O)c1cnc(-c2cnn3cc(C#N)cnc23)cc1N[C@@H]1CCN(c2ncccn2)C1 | IL-6 levels in human whole blood stimulated with a TLR2 agonist | 6.15
CC(C)(F)CNc1cc(-c2cnn3cc(C#N)cnc23)ncc1C(=O)NC[C@@H](F)C(C)(C)O | IL-6 levels in human whole blood stimulated with a TLR2 agonist | 5.53
CC(C)(O)[C@H](F)CNC(=O)c1cnc(-c2cnn3cc(Cl)cnc23)cc1NCC(F)F | IL-6 levels in human whole blood stimulated with a TLR2 agonist | 6.12
CCNc1cc(-c2cnc3cc(Cl)cnn23)ncc1C(=O)NC[C@@H](F)C(C)(C)O | IL-6 levels in human whole blood stimulated with a TLR2 agonist | 6.15
CNC(=O)[C@H]1CC[C@H](NC(=O)c2cnc(-c3cnn4cc(Cl)cnc34)cc2NC2CC2)CC1 | IL-6 levels in human whole blood stimulated with a TLR2 agonist | 6.34

Consider CC(C)(O)[C@H](F)CNC(=O)c1cnc(-c2cnn3cc(C#N)cnc23)cc1NCC(F)F . Its measured pEC50 is 6.44

Consider CC(C)(O)[C@H](F)CNC(=O)c1cnc(-c2cnc3cc(Cl)cnn23)cc1Nc1cnn(C(F)F)c1 . Its measured pEC50 is 6.09

----------
- System: IL-6 levels in human whole blood stimulated with a TLR2 agonist
- TEST PROTOCOL: IRAK4 Whole Blood Assay (lipoteichoic acid/TLR2-stimulated IL-6)
- Type: cell-based
- STATED CONDITIONS: Homo sapiens, lipoteichoic acid 10 μg/mL, IL-6 readout
MEASUREMENT TYPE: EC50 (nM)
Reply with just the number (in nM).

Recorded results for 3 molecules are shown here.
STRUCTURE SMILES STRING | TARGET ENTITY | EC50 [nM]
CC(C)(O)[C@H](F)CNC(=O)c1cnc(-c2cnc3cc(Cl)cnn23)cc1NC1CC1 | IL-6 levels in human whole blood stimulated with a TLR2 agonist | 230
CC(C)Nc1cc(-c2cnc3cc(Cl)cnn23)ncc1C(=O)NC[C@@H](F)C(C)(C)O | IL-6 levels in human whole blood stimulated with a TLR2 agonist | 100
CC(C)(O)[C@H](F)CNC(=O)c1cnc(-c2cnc3cc(Cl)cnn23)cc1NC1COC1 | IL-6 levels in human whole blood stimulated with a TLR2 agonist | 490

Field: next molecule
Response field EC50 (IL-6 levels in human whole blood stimulated with a TLR2 agonist) for item CC(C)(O)[C@H](F)CNC(=O)c1cnc(-c2cnn3cc(C#N)cnc23)cc1N[C@@H]1CCN(c2ncc(F)cn2)C1 : 440

----------
- TEST PROTOCOL: Caco Permeability Assay
- Type: in vitro ADME
- STATED CONDITIONS: human, Caco-2, Caco-2 cells, 3 μM compound
Rule: criterion met for Papp at 2 h, 3 µM not less than 4 ×10⁻⁶ cm/s, criterion not met for anything less.

Reference set (4 entries):
STRUCTURE SMILES STRING | QUALITATIVE LABEL
CC(F)(F)CNc1cc(-c2cnn3cc(C#N)cnc23)ncc1C(=O)NC[C@@H](F)C(C)(C)O | criterion met
CCNc1cc(-c2cnn3cc(Cl)cnc23)ncc1C(=O)NC[C@@H](F)C(C)(C)O | criterion met
CC(F)(F)Cn1cc(Nc2cc(-c3cnn4cc(C#N)cnc34)ncc2C(=O)NC[C@@H](F)C(C)(C)O)cn1 | criterion not met
CC(C)(O)[C@H](F)CNC(=O)c1cnc(-c2cnn3cc(C#N)cnc23)cc1Nc1ccn(CC(F)F)n1 | criterion not met

Prompt line: Check the entry CC(C)(O)[C@H](F)CNC(=O)c1cnc(-c2cnn3cc(C#N)cnc23)cc1NC1CCC1 : does Papp at 2 h, 3 µM equal or exceed 4 ×10⁻⁶ cm/s?
Response line: criterion met

Prompt line: Check the entry CC(C)(O)[C@H](F)CNC(=O)c1cnc(-c2cnc3cc(Cl)cnn23)cc1Nc1cnn(C(F)F)c1 : does Papp at 2 h, 3 µM equal or exceed 4 ×10⁻⁶ cm/s?
Response line: criterion met

Prompt line: Check the entry CC(C)(O)[C@H]1CC[C@H](NC(=O)c2cnc(-c3cnn4cc(Cl)cnc34)cc2NC2COC2)CC1 : does Papp at 2 h, 3 µM equal or exceed 4 ×10⁻⁶ cm/s?
Response line: criterion met

Prompt line: Check the entry Cn1cc(Nc2cc(-c3cnn4cc(C#N)cnc34)ncc2C(=O)NC[C@@H](F)C(C)(C)O)cn1 : does Papp at 2 h, 3 µM equal or exceed 4 ×10⁻⁶ cm/s?
Response line: criterion not met

Prompt line: Check the entry CC(C)(O)[C@H](F)CNC(=O)c1cnc(-c2cnc3cc(Cl)cnn23)cc1Nc1cnn(C2CC(F)(F)C2)c1 : does Papp at 2 h, 3 µM equal or exceed 4 ×10⁻⁶ cm/s?
Response line: criterion not met

Prompt line: Check the entry Cc1cc(Nc2cc(-c3cnn4cc(C#N)cnc34)ncc2C(=O)NC[C@@H](F)C(C)(C)O)n(C)n1 : does Papp at 2 h, 3 µM equal or exceed 4 ×10⁻⁶ cm/s?
Response line: criterion not met

Prompt line: Check the entry COCCn1cc(Nc2cc(-c3cnn4cc(Cl)cnc34)ncc2C(=O)NC[C@@H](F)C(C)(C)O)cn1 : does Papp at 2 h, 3 µM equal or exceed 4 ×10⁻⁶ cm/s?
Response line: criterion not met
